assay: Drug repurposing screens with cells derived from glioblastoma tumor samples (AID 1345199); conditions: GBM patient neurospheres viability, ATP luminescence, 48 h; at 45.9 µM (top of the series); tumour line D; also: % is scaled to controls: 0 for no effect and ±100 for the full control effect; nearly all actives have a fitted effect of over 40% in size
Inconclusive results are not listed.
Outcome Measure: activity, negative = cell killing (%)
Give bare numbers, in %.

See these solved cases before continuing.
Molecule: Cc1cc(C(C)(C)C)c(O)c(C)c1CC1=NCCN1
Reading: -26.9
//
Molecule: Cc1cn([C@H]2C=C[C@@H](CO)O2)c(=O)[nH]c1=O
Reading: -7.24
//
Molecule: Cn1c(=O)c2c(ncn2C)n(C)c1=O
Reading: -11.6

Consider now this further molecule.
Query :: Give its activity, negative = cell killing value. Item: CC(C)Cc1ccc(C(C)C(=O)O)cc1 (centres undefined)
Result :: -6.13

###

system: TAB113; experiment: qHTS profiling for inhibitors of Plasmodium falciparum proliferation (AID 504749);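 also: 0% = DMSO vehicle and full inhibition = artemisinin control; nearly all actives have a fitted effect of over 60% in size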; conditions: P. falciparum in erythrocytes, SYBR Green DNA, 72 h; series mostly up to 28.7 µM
Records with an inconclusive call do not appear. The source made the active and inactive calls. Calls come from the whole dose curve; as a rule, active = well fitted inhibition curve with a large enough effect; inconclusive = small, poorly fitted or top-dose-only effect; inactive = flat fitted curve, though single readings scatter.
Could you please pick one outcome from this set? true (active), false (inactive)

Query :: Any idea what this test logged for "CS(=O)(=O)CCNCc1ccc(-c2ccc3ncnc(Nc4ccc(OCc5cccc(F)c5)c(Cl)c4)c3c2)o1" ?
Result :: false

Query :: Any idea what this test logged for "COc1nc(C)nc(Cl)c1NC1=NCCN1" ?
Result :: false

###

assay: qHTS for Activators of Parkin Expression: LOPAC Validation Assay (FLuc Reporter) (AID 720573;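 also: 0% = DMSO and 100% = positive control compounds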); details: Cell line, PRKN promoter firefly luciferase reporter; series mostly up to 46.1 µM
Records with an inconclusive call do not appear. Calls of active or inactive are those of the source. Calls follow the shape of the dose curve; as a rule, active = well fitted activation curve with a large enough effect; inconclusive = small, poorly fitted or top-dose-only effect; inactive = no such curve, though single readings can be large or run the other way.
Outcome Measure: outcome

See these solved cases before continuing.
Compound: CC#C[C@]1(O)CC[C@H]2[C@@H]3CCC4=CC(=O)CCC4=C3[C@@H](c3ccc(N(C)C)cc3)C[C@@]21C
outcome: inactive
--
Compound: O=C(c1ccc(OCCN2CCCCC2)cc1)c1c(-c2ccc(O)cc2)sc2cc(O)ccc12
outcome: inactive
--
Compound: CN1CCC(=C2c3ccccc3CC(=O)c3sccc32)CC1
outcome: inactive
--
Compound: O=C(CCCN1CCC(O)(c2ccc(Cl)cc2)CC1)c1ccc(F)cc1
outcome: inactive
--
Compound: CN(C)CCOC(c1ccccc1)c1ccccc1
outcome: inactive

Hi there! I need outcome for each item below, if you can.
1. COc1cc2nc(N3CCN(C(=O)c4ccco4)CC3)nc(N)c2cc1OC
2. O=C(c1ccc(F)cc1)C1CCN(CCn2c(=O)[nH]c3ccccc3c2=O)CC1
3. CC(C(=O)O)c1cccc(C(=O)c2ccccc2)c1 (stereo unspecified)
4. COc1ccc2c(c1)c(CC(=O)O)c(C)n2C(=O)c1ccc(Cl)cc1
5. Clc1ccc2nsnc2c1NC1=NCCN1
6. CN(C)c1nc(N(C)C)nc(N(C)C)n1

Result ::
inactive
inactive
inactive
inactive
inactive
inactive

###

system: HEK293; assay: Cytotoxic Profiling of Annotated Libraries Using Quantitative High-Throughput Screening (AID 1296008); conditions: Five cell lines viability, CellTiter-Glo ATP luminescence, 48-72 h; stronger effect = lower value; also: % is scaled to controls: 0 for no effect and ±100 for the full control effect; nearly all actives have a fitted effect of over 60% in size
Inconclusive results are not listed. Activity calls are given as the source filed them. The call rests on the fitted dose curve; in most records, active means well fitted inhibition curve with a large enough effect; inconclusive means small, poorly fitted or top-dose-only effect; inactive means flat fitted curve, though single readings scatter.
Outcome Measure: max response

See these solved cases before continuing.
Compound: CC1(C)O[C@H]2CC(=O)OC[C@]23[C@H]2CC[C@@]4(C)[C@H](c5ccoc5)OC(=O)[C@H]5O[C@]54[C@]2(C)C(=O)C[C@@H]13
Measurement Target: HEK293
max response: -8.07% (inactive)
--
Compound: Clc1ccc2nsnc2c1NC1=NCCN1
Measurement Target: HEK293
max response: -8.03% (inactive)
--
Compound: CN1C2CCC1CC(OC(=O)C(CO)c1ccccc1)C2 (stereo not given)
Measurement Target: HEK293
max response: 0.412% (inactive)

Hi there! I need max response for each item below, if you can.
1. C[C@H]1c2cccc(O)c2C(O)=C2C(=O)[C@]3(O)C(O)=C(C(N)=O)C(=O)[C@@H](N(C)C)[C@@H]3[C@@H](O)[C@@H]21
2. COc1ccccc1OCC(O)CN1CCN(CC(=O)Nc2c(C)cccc2C)CC1 (stereo not given)

Result ::
1. -8.48% (inactive)
2. 1.75% (inactive)

###

experiment: qHTS Screen of the MIPE 4.0 Collection Against Ewings Sarcoma (TC32) (AID 1259256); settings: TC32 Ewing sarcoma viability, CellTiter-Glo, 48 h; series mostly up to 45.8 µM; also: nearly all actives have a fitted effect of over 45% in size
Inconclusive results are not listed. The source made the active and inactive calls. Calls come from the whole dose curve; as a rule, active = well fitted inhibition curve with a large enough effect; inconclusive = small, poorly fitted or top-dose-only effect; inactive = no such curve, though single readings can be large or run the other way.
Could you please pick one outcome from this set? active, inactive

// below: answered compounds
Compound: CN1CCC(=C2c3ccccc3CC(=O)c3sccc32)CC1
Label: active
//
Compound: CS(=O)(=O)CCNCc1ccc(-c2ccc3ncnc(Nc4ccc(OCc5cccc(F)c5)c(Cl)c4)c3c2)o1
Label: active
//
Compound: O=C(C1CCCCC1)N1CC(=O)N2CCc3ccccc3C2C1 (stereo unspecified)
Label: inactive
//
Compound: CN(C)C(=O)C(CCN1CCC(O)(c2ccc(Cl)cc2)CC1)(c1ccccc1)c1ccccc1
Label: active

Query :: Any idea what this test logged for "CN1CCN(CCCN2c3ccccc3Sc3ccc(Cl)cc32)CC1" ?
Result :: active

Query :: Any idea what this test logged for "NC(=O)OCC(COC(N)=O)c1ccccc1" ?
Result :: active

Query :: Any idea what this test logged for "Cc1cc(C(C)(C)C)cc(C)c1CC1=NCCN1" ?
Result :: inactive

Query :: Any idea what this test logged for "CC(C)C(=O)Nc1ccc([N+](=O)[O-])c(C(F)(F)F)c1" ?
Result :: active

###

experiment: qHTS for identification of novel therapeutic agents for treatment of microphthalmiaassociated transcription factor (MiT) renal cell carcinoma (RCC) (AID 1963991); details: TFE3-RCC viability, CellTiter-Glo, 48 h; measured here: UOK124 Z-AUC; stronger effect = lower value;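 also: curves scaled with 100% = DMSO viability and 0% = empty wells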
Results filed as inconclusive are left out.
Outcome Measure: z-score
One number for each entry.

Compound: CN(C)C(=N)N=C(N)N
z-score: 1.58
--
Compound: NCCCCCC(=O)O
z-score: 0.487
--
Compound: CCN1CCCC1CNC(=O)c1cc(S(=O)(=O)CC)c(N)cc1OC (stereo not drawn)
z-score: 0.754
--
Compound: CS(=O)(=O)Nc1ccc([N+](=O)[O-])cc1Oc1ccccc1
z-score: 0.234
--
Compound: CC(C(=O)O)c1cccc(C(=O)c2ccccc2)c1 (stereo not drawn)
z-score: 0.474

Hi there! I need z-score for each item below, if you can.
1. O=C1c2c(O)ccc(O)c2C(=O)c2c(NCCNCCO)ccc(NCCNCCO)c21
2. CN1C2CCC1CC(OC(=O)C(CO)c1ccccc1)C2 (stereo not drawn)
3. CC(C)(C)C(=O)Oc1ccc(S(=O)(=O)Nc2ccccc2C(=O)NCC(=O)O)cc1
4. CCOC(=O)Nc1ccc(NCc2ccc(F)cc2)nc1N

Result ::
-1.52
0.456
0.0353
0.938

Hi there! I need z-score for each item below, if you can.
1. Cc1cn([C@H]2C=C[C@@H](CO)O2)c(=O)[nH]c1=O
2. N[C@@H](Cc1c[nH]c2ccc(O)cc12)C(=O)O
3. O=C(C1CCCCC1)N1CC(=O)N2CCc3ccccc3C2C1 (stereo not drawn)
4. COc1nc(C)nc(Cl)c1NC1=NCCN1

Result ::
1. 0.139
2. 0.415
3. 0.786
4. 0.306

###

assay: Quantitative High-Throughput drug screen in 47 multiple myeloma cell lines against the NCATS MIPE library collection: Karpas25_ECACC cell viability assay (AID 1918968; also: nearly all actives have a fitted effect of over 35% in size); details: Karpas25 myeloma viability, CellTiter-Glo ATP, 48 h; series mostly up to 45.8 µM
Records with an inconclusive call do not appear. Activity calls are given as the source filed them. Calls come from the whole dose curve; as a rule, active = well fitted cell-killing curve with a large enough effect; inconclusive = small, poorly fitted or top-dose-only effect, or effect the other way; inactive = no such curve, though single readings can be large or run the other way.
Could you please pick one outcome from this set? YES (active), NO (inactive)

// below: answered molecules
Molecule: CN(C)CCC=C1c2ccccc2C=Cc2ccccc21
Label: YES
--
Molecule: CCC1(C)CC(=O)NC1=O (stereo unspecified)
Label: NO
--
Molecule: C[C@](N)(Cc1ccc(O)c(O)c1)C(=O)O
Label: YES
--
Molecule: Clc1ccc2nsnc2c1NC1=NCCN1
Label: NO
--
Molecule: CC1(C)O[C@H]2CC(=O)OC[C@]23[C@H]2CC[C@@]4(C)[C@H](c5ccoc5)OC(=O)[C@H]5O[C@]54[C@]2(C)C(=O)C[C@@H]13
Label: NO

Query :: Any idea what this test logged for "COc1ccc2[nH]cc(CCNC(C)=O)c2c1" ?
Result :: NO

###

molecular target: ATP-dependent 6-phosphofructokinase (Trypanosoma brucei brucei) (UniProt O15648); assay: qHTS Validation Assay to Find Inhibitors of T. brucei phosphofructokinase (AID 485368); also: potency is read from the fitted curve at half-maximal effect; conditions: T. brucei PFK enzyme assay, qHTS 7-point titration; series mostly up to 57.5 µM
Sequence (O15648 whole entry, looked up): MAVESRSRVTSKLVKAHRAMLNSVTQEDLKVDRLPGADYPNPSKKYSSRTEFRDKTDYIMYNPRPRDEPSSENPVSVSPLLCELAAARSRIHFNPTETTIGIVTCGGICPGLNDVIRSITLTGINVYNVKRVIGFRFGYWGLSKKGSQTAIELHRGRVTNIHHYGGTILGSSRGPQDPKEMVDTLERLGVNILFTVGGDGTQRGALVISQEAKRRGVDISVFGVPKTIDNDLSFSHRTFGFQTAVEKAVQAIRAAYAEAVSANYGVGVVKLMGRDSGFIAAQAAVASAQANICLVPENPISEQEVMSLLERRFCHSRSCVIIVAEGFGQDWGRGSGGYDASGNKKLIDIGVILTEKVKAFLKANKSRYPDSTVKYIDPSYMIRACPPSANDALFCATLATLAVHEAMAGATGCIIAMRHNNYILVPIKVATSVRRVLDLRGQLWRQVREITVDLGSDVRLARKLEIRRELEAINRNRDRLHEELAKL
Inconclusive results are not listed. The source made the active and inactive calls. Calls come from the whole dose curve; as a rule, active = well fitted inhibition curve with a large enough effect; inconclusive = small, poorly fitted or top-dose-only effect, or effect the other way; inactive = flat fitted curve, though single readings scatter.
Outcome Measure: Potency

See these solved cases before continuing.
Compound: NCCCCCC(=O)O
Measurement Target: ATP-dependent 6-phosphofructokinase (Trypanosoma brucei brucei) (UniProt O15648)
Potency: inactive
//
Compound: NCCc1cnc[nH]1
Measurement Target: ATP-dependent 6-phosphofructokinase (Trypanosoma brucei brucei) (UniProt O15648)
Potency: inactive
//
Compound: Cc1ccc(C(=O)Nc2ccc(S(=O)(=O)O)c3cc(S(=O)(=O)O)cc(S(=O)(=O)O)c23)cc1NC(=O)c1cccc(NC(=O)Nc2cccc(C(=O)Nc3cc(C(=O)Nc4ccc(S(=O)(=O)O)c5cc(S(=O)(=O)O)cc(S(=O)(=O)O)c45)ccc3C)c2)c1
Measurement Target: ATP-dependent 6-phosphofructokinase (Trypanosoma brucei brucei) (UniProt O15648)
Potency: 675 nM (active)
//
Compound: CN1CCC(=C2c3ccccc3C=Cc3ccccc32)CC1
Measurement Target: ATP-dependent 6-phosphofructokinase (Trypanosoma brucei brucei) (UniProt O15648)
Potency: inactive

Hi there! I need Potency for each item below, if you can.
1. CC(CCc1ccc(O)cc1)NCCc1ccc(O)c(O)c1 (stereo unspecified)
2. Cc1cc(C(C)(C)C)c(O)c(C)c1CC1=NCCN1

Result ::
inactive
inactive
